# assayedTarget: PD-1/PD-L1 interaction (PD-1-Ig / PD-L1-His) (Homo sapiens (Human), UniProt Q9NZQ7)
# Sequence (Q9NZQ7 other isoform, or with tags, fused parts or gaps): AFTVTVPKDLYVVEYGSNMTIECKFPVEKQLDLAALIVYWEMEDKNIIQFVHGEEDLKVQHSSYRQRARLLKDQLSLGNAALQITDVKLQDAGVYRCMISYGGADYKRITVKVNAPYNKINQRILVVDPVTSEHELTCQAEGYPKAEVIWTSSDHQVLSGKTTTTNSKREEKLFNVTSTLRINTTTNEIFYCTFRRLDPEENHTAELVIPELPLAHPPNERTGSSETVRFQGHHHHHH
# measurementNotes: PD-1/PD-L1 Homogenous Time-Resolved Fluorescence (HTRF) binding assay
# conditionDetails: PD-1/PD-L1 HTRF binding assay; value given as range class; read-out: Range or IC50
pIC50: −log10 of the molar value.
// reported pIC50 per item

compound	assayedTarget	pIC50
Cc1cc(CN[C@](C)(CO)C(=O)O)c(OCc2ccc(F)c(C#N)c2)cc1OCc1cccc(-c2ccc3c(c2)OCCO3)c1C	PD-1/PD-L1 interaction (PD-1-Ig / PD-L1-His) (Homo sapiens (Human), UniProt Q9NZQ7)	8.00 to 9.22
Cc1c(COc2ccc(CN[C@@H](C(=O)O)[C@H](C)O)c(OCc3cccc(C#N)c3)c2)cccc1-c1ccc2c(c1)OCCO2	PD-1/PD-L1 interaction (PD-1-Ig / PD-L1-His) (Homo sapiens (Human), UniProt Q9NZQ7)	8.00 to 9.22
Cc1c(COc2cc(OCc3cccc(C#N)c3)c(CNC(CC(F)(F)F)C(=O)O)cc2Cl)cccc1-c1ccc2c(c1)OCCO2 (centres unmarked)	PD-1/PD-L1 interaction (PD-1-Ig / PD-L1-His) (Homo sapiens (Human), UniProt Q9NZQ7)	4.70 to 7.00
N#Cc1cccc(COc2cc(OCc3cccc(-c4ccc5c(c4)OCCO5)c3Cl)ccc2CNC[C@@H](O)CC(=O)O)c1	PD-1/PD-L1 interaction (PD-1-Ig / PD-L1-His) (Homo sapiens (Human), UniProt Q9NZQ7)	8.00 to 9.22
Cc1c(COc2ccc(CN[C@H](CO)CC(=O)O)c(OCc3cccc(C#N)c3)c2)cccc1-c1ccc2c(c1)OCCO2	PD-1/PD-L1 interaction (PD-1-Ig / PD-L1-His) (Homo sapiens (Human), UniProt Q9NZQ7)	8.00 to 9.22
Cc1cc(CN[C@](C)(CO)C(=O)O)c(OCc2cncc(C#N)c2)cc1OCc1cccc(-c2ccc3c(c2)OCCO3)c1Cl	PD-1/PD-L1 interaction (PD-1-Ig / PD-L1-His) (Homo sapiens (Human), UniProt Q9NZQ7)	8.00 to 9.22
N#Cc1cccc(COc2cc(OCc3cccc(-c4ccc5c(c4)OCCO5)c3C#N)c(Cl)cc2CN[C@H](CO)C(=O)O)c1	PD-1/PD-L1 interaction (PD-1-Ig / PD-L1-His) (Homo sapiens (Human), UniProt Q9NZQ7)	8.00 to 9.22
N#Cc1cccc(COc2cc(OCc3cccc(-c4ccc5c(c4)OCCO5)c3C#N)c(Br)cc2CN[C@@H](CO)C(=O)O)c1	PD-1/PD-L1 interaction (PD-1-Ig / PD-L1-His) (Homo sapiens (Human), UniProt Q9NZQ7)	8.00 to 9.22

Readout pIC50 for CC(=O)NCCNCc1ccc(OCc2cccc(-c3ccccc3)c2C)cc1OCc1cccc(CO)c1 , test system PD-1/PD-L1 interaction (PD-1-Ig / PD-L1-His) (Homo sapiens (Human), UniProt Q9NZQ7), was 4.70 to 7.00

Readout pIC50 for CCc1cc(CN[C@@](C)(CO)C(=O)O)c(OCc2cccc(C#N)c2)cc1OCc1cccc(-c2ccc3c(c2)OCCO3)c1C , test system PD-1/PD-L1 interaction (PD-1-Ig / PD-L1-His) (Homo sapiens (Human), UniProt Q9NZQ7), was 8.00 to 9.22

Readout pIC50 for CC(=O)NCCNCc1ccc(OCc2cccc(-c3ccccc3)c2C)cc1OCc1ccccc1OC(F)(F)F , test system PD-1/PD-L1 interaction (PD-1-Ig / PD-L1-His) (Homo sapiens (Human), UniProt Q9NZQ7), was 4.70 to 7.00

Readout pIC50 for COc1cc(OCc2cccc(-c3ccccc3)c2C)cc(OCc2cccc(C#N)c2)c1CN[C@@H](C(=O)O)[C@H](C)O , test system PD-1/PD-L1 interaction (PD-1-Ig / PD-L1-His) (Homo sapiens (Human), UniProt Q9NZQ7), was 8.00 to 9.22

Readout pIC50 for Cc1cc(CN[C@](C)(CO)C(=O)O)c(OCc2cncc(C#N)c2)cc1OCc1cccc(-c2ccc3c(c2)OCCO3)c1C , test system PD-1/PD-L1 interaction (PD-1-Ig / PD-L1-His) (Homo sapiens (Human), UniProt Q9NZQ7), was 8.00 to 9.22

Readout pIC50 for Cc1c(COc2cc(OCc3ccccc3)c(CN3CCCC[C@H]3C(=O)O)cc2Cl)cccc1-c1ccc2c(c1)OCCO2 , test system PD-1/PD-L1 interaction (PD-1-Ig / PD-L1-His) (Homo sapiens (Human), UniProt Q9NZQ7), was 4.70 to 7.00
